assay-summary: qHTS assay to identify small molecule antagonists of the retinoid-related orphan receptor gamma (ROR-gamma) signaling pathway - cell viability counter screen (AID 1159520); note: nearly all actives have a fitted effect of over 50% in size
assay-conditions: Tet-on RORgamma CHO cells viability, ATP luminescence, 16 h; series mostly up to 92.4 µM
Records with an inconclusive call do not appear. The source made the active and inactive calls. Calls come from the whole dose curve; as a rule, active = well fitted cell-killing curve with a large enough effect in the repeat runs; inconclusive = weak or mixed curves, or effect the other way; inactive = no such curve, though single readings can be large or run the other way.
Outcome field: choose from t for active, f for inactive

Observe how each entry below is paired with its result.
Hey, what did the test say about "O=C(OCCCCCCOC(=O)c1ccccc1)c1ccccc1" ?
f

Outcome logged for "CCN(CC)CCNc1ccc(CNC=O)c2sc3ccc(OC)cc3c(=O)c12" in this assay:
t

Given "CCCCCCCC/C=C\CCCCCCCC(=O)OCC" , state the outcome it received in this test.
f

Please indicate how the test categorized "Cc1cc(C(=O)O)ccc1[N+](=O)[O-]" .
f

Fill in: this test's call for COc1ccnc(CS(=O)c2nc3ccc(OC(F)F)cc3[nH]2)c1OC (stereo not drawn) is ___
f

Each molecule tested received a call. Report the one for O=CC1CC=CCC1 (stereo not drawn) .
f

Recorded test call requested for "N=c1ccn2c(n1)O[C@H]1[C@H](O)[C@@H](CO)O[C@H]12"
f

Lab log entry: "CN1CCC(=C2c3ccccc3Sc3ccccc32)CC1" — outcome as called in the assay?
f

***
Write down the call the test reported for this molecule. Item: "Cc1cccc(C)c1OCC(=O)N[C@@H](Cc1ccccc1)[C@@H](O)C[C@H](Cc1ccccc1)NC(=O)[C@H](C(C)C)N1CCCNC1=O"
f

# fetch the recorded call for O[C@@H](COc1cccc2ncccc12)CN1CCN(C2c3ccccc3[C@@H]3[C@H](c4ccccc42)C3(F)F)CC1 (stereo partly drawn) here
f
